# STUDY_SYSTEM: TNKS2 ARC4 (Homo sapiens)
# Construct: ankyrin repeat cluster 4 domain; FRET: 6xHis-mCerulean (CFP) fusion; DSF, NMR, crystal: MBP and His tag cleaved by TEV, residues 487-649 printed for crystal; E. coli BL21(DE3)
# ASSAY_TEXT: FRET displacement of YFP-REAGDGEE peptide from CFP-ARC
# Type: binding
pIC50: −log10 of the molar value.
TEST_READOUT: pIC50

- MOLECULE: "COc1cccc(C2C(C(=O)c3ccc4c(c3)OCCO4)=C(O)C(=O)N2CCCN2CCNCC2)c1 (stereo not drawn)"
  STUDY_SYSTEM: "TNKS2 ARC4 (Homo sapiens)"
  REPORTED_RESULT: 3.60
- MOLECULE: "CCOc1ccc(C2C(C(=O)c3ccc4c(c3)OCCO4)=C(O)C(=O)N2CCCN2CCOCC2)cc1 (stereo not drawn)"
  STUDY_SYSTEM: "TNKS2 ARC4 (Homo sapiens)"
  REPORTED_RESULT: 3.93
- MOLECULE: "CCN(CC)CCCN1C(=O)C(O)=C(C(=O)c2ccc3c(c2)CC(C)O3)C1c1ccc(O)cc1 (stereo not drawn)"
  STUDY_SYSTEM: "TNKS2 ARC4 (Homo sapiens)"
  REPORTED_RESULT: 4.51
- MOLECULE: "CCN(CC)CCCN1C(=O)C(O)=C(C(=O)c2ccc3c(c2)OCCO3)C1c1cccc(OC)c1 (stereo not drawn)"
  STUDY_SYSTEM: "TNKS2 ARC4 (Homo sapiens)"
  REPORTED_RESULT: 4.96
- MOLECULE: "CCN(CC)CCCN1C(=O)C(O)=C(C(=O)c2ccc3c(c2)OCCO3)C1c1ccc(O)cc1 (stereo not drawn)"
  STUDY_SYSTEM: "TNKS2 ARC4 (Homo sapiens)"
  REPORTED_RESULT: 4.80

(1) CCCCOc1ccc(C2C(C(=O)c3ccc4c(c3)OCCO4)=C(O)C(=O)N2CCCN(C)C)cc1 (stereo not drawn)
(2) CCN(CC)CCCN1C(=O)C(O)=C(C(=O)c2ccc3c(c2)OCCO3)C1c1cccc(O)c1 (stereo not drawn)
Of the two listed items, 1 and 2 , which carries the larger pIC50 figure? Give the chosen item's label as your response.
2
(2: 4.62, 1: 4.16)

(a) O=C(C1=C(O)C(=O)N(CCc2ccccc2)C1c1ccc(O)cc1)c1ccc2c(c1)OCCO2 (stereo not drawn)
(b) CCN(CC)CCCN1C(=O)C(O)=C(C(=O)c2ccc(OCc3ccc(C)cc3)cc2)C1c1ccc(O)cc1 (stereo not drawn)
Of the two listed items, a and b , which carries the larger pIC50 figure? Give the chosen item's label as your response.
a

(a) CN(C)CCCN1C(=O)C(O)=C(C(=O)c2ccc3c(c2)OCCO3)C1c1ccc(Br)cc1 (stereo not drawn)
(b) CCN(CC)CCCN1C(=O)C(O)=C(C(=O)c2ccc3c(c2)OCCO3)C1c1ccccc1 (stereo not drawn)
(c) CCN(CC)CCN1C(=O)C(O)=C(C(=O)c2ccc3c(c2)OCCO3)C1c1cccc(O)c1 (stereo not drawn)
List these items ordered by pIC50, big to small. Returns: the labels listed in the requested order.
b, a, c

(A) CCCCOc1ccc(C2C(C(=O)c3ccc4c(c3)OCCO4)=C(O)C(=O)N2CCCN2CCOCC2)cc1 (stereo not drawn)
(B) CN(C)CCCN1C(=O)C(O)=C(C(=O)c2ccc3c(c2)OCCO3)C1c1cccc(O)c1 (stereo not drawn)
Given A and given B , which shows the smaller recorded pIC50? Give the chosen item's label as your response.
A

###

# STUDY_SYSTEM: TNKS2 ARC4 (Homo sapiens, UniProt Q9H2K2)
# Construct: ankyrin repeat cluster 4 domain; FRET: 6xHis-mCerulean (CFP) fusion; DSF, NMR, crystal: MBP and His tag cleaved by TEV, residues 487-649 printed for crystal; E. coli BL21(DE3)
# Sequence (Q9H2K2 487-649): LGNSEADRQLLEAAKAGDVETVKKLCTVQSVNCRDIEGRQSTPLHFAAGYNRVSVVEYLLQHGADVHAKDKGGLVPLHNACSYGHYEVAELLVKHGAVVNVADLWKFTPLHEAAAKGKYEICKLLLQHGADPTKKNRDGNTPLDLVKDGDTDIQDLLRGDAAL
# Set-up: DSF thermal shift of TNKS2 ARC4, stabilization over DMSO control
# RUN_CONDITIONS: binder
TEST_READOUT: ΔTm ± SD (°C)

Worked cases, answers included:
- COMPOUND: "CN(C)CCCN1C(=O)C(O)=C(C(=O)c2ccc3c(c2)oc(=O)n3C)C1c1ccccc1 (stereo not shown) [compound 27, 27]"
  UNITS: "°C"
  ΔTm ± SD (°C): -0.03
- COMPOUND: "CCN(CC)CCCN1C(=O)C(O)=C(C(=O)c2ccc3ccccc3c2)C1c1ccc(O)cc1 (stereo not shown) [S6]"
  UNITS: "°C"
  ΔTm ± SD (°C): -0.06
- COMPOUND: "Cc1cc(C(=O)C2=C(O)C(=O)N(CCCN(C)C)C2c2ccc(O)cc2)ccc1OC(C)C (stereo not shown) [compound 34, 34]"
  UNITS: "°C"
  ΔTm ± SD (°C): -0.08
- COMPOUND: "O=C(C1=C(O)C(=O)N(CCCN2CCOCC2)C1c1ccccc1)c1ccc2c(c1)OCCO2 (stereo not shown) [compound 42, 42]"
  UNITS: "°C"
  ΔTm ± SD (°C): 2.26
- COMPOUND: "COc1ccc(C(=O)C2=C(O)C(=O)N(CCCN3CCOCC3)C2c2ccc(C)cc2)cc1OC (stereo not shown) [compound 30, 30]"
  UNITS: "°C"
  ΔTm ± SD (°C): 0.12

(I) O=C(C1=C(O)C(=O)N(CCCN2CCNCC2)C1c1cccc(O)c1)c1ccc2c(c1)OCCO2 (stereo not shown) [S2]
(II) CCOc1ccc(C2C(C(=O)c3ccc4c(c3)OCCO4)=C(O)C(=O)N2CCCN2CCOCC2)cc1 (stereo not shown) [compound 7, 7]
(III) O=C(C1=C(O)C(=O)N(Cc2ccncc2)C1c1ccccc1)c1ccc2c(c1)OCCO2 (stereo not shown) [compound 22]
List these items ordered by ΔTm ± SD (°C), big to small. Returns: the labels listed in the requested order.
II, I, III

(a) CCN(CC)CCN1C(=O)C(O)=C(C(=O)c2ccc3c(c2)OCCO3)C1c1ccccc1 (stereo not shown) [compound 39, 39]
(b) Cc1ccc(C2C(C(=O)c3ccc4c(c3)OCCO4)=C(O)C(=O)N2CCCN(C)C)cc1 (stereo not shown) [compound 3, 3]
(c) Cc1ccc(C2C(C(=O)c3ccc4c(c3)OCCO4)=C(O)C(=O)N2Cc2ccccc2)cc1 (stereo not shown) [compound 37, 37]
(d) CCN(CC)CCCN1C(=O)C(O)=C(C(=O)c2ccc3c(c2)OCCO3)C1c1ccccc1 (stereo not shown) [compound 21]
Sort the compounds on ΔTm ± SD (°C); start with the lowest figure. Returns: the labels listed in the requested order.
c, a, b, d

(1) O=C(C1=C(O)C(=O)N(Cc2ccccc2)C1c1cccc(O)c1)c1ccc2c(c1)OCCO2 (stereo not shown) [compound 36, 36]
(2) CCN(CC)CCCN1C(=O)C(O)=C(C(=O)c2ccc3c(c2)OCCO3)C1c1ccc(F)cc1 (stereo not shown) [compound 2, 2]
Of the two listed items, 1 and 2 , which carries the larger ΔTm ± SD (°C) figure? Give the chosen item's label as your response.
2

(I) CCN(CC)CCCCN1C(=O)C(O)=C(C(=O)c2ccc3c(c2)OCCO3)C1c1ccc(O)cc1 (stereo not shown) [S12]
(II) COCCN1C(=O)C(O)=C(C(=O)c2ccc3c(c2)OCCO3)C1c1cccc(O)c1 (stereo not shown) [compound 35, 35]
Given I and given II , which shows the smaller recorded ΔTm ± SD (°C)? Give the chosen item's label as your response.
II

###

Item-by-item account of pIC50
# STUDY_SYSTEM: TNKS2 ARC1 (Homo sapiens, UniProt Q9H2K2)
# Construct: ankyrin repeat cluster 1 domain, 6xHis-mCerulean (CFP) fusion, E. coli
# Sequence (Q9H2K2 21-174 limits assumed): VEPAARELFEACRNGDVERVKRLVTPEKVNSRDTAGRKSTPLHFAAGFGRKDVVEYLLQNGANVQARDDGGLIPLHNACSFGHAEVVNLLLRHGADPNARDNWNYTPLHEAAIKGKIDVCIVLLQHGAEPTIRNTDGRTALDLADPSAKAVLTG
# ASSAY_TEXT: FRET displacement of YFP-REAGDGEE peptide from CFP-ARC
# Excerpt: FRET displacement of YFP-REAGDGEE peptide from CFP-ARC on TNKS2 ARC1
pIC50: −log10 of the molar value.

- COMPOUND: "COc1ccc(C2C(C(=O)c3ccc4c(c3)OCCO4)=C(O)C(=O)N2CCCN2CCOCC2)cc1 (stereo not drawn)"
  REPORTED_RESULT: "< 3.00"

Entry under review: CCN(CC)CCCN1C(=O)C(O)=C(C(=O)c2ccc3c(c2)OCCO3)C1c1ccc(O)cc1 (stereo not drawn) . Reported pIC50?
< 3.00

Entry under review: Cc1ccc(C2C(C(=O)c3ccc4c(c3)OCCO4)=C(O)C(=O)N2CCCN2CCOCC2)cc1 (stereo not drawn) . Reported pIC50?
< 3.00

###

# STUDY_SYSTEM: TNKS2 ARC4 (Homo sapiens, UniProt Q9H2K2)
# Construct: ankyrin repeat cluster 4 domain; FRET: 6xHis-mCerulean (CFP) fusion; DSF, NMR, crystal: MBP and His tag cleaved by TEV, residues 487-649 printed for crystal; E. coli BL21(DE3)
# ASSAY_TEXT: FRET displacement of YFP-REAGDGEE peptide from CFP-ARC
# Format: binding
pIC50: −log10 of the molar value.
TEST_READOUT: pIC50

Worked cases, answers included:
- COMPOUND: "Cc1ccc(C2C(C(=O)c3ccc4c(c3)OCCO4)=C(O)C(=O)N2CCCN2CCOCC2)cc1 (stereo not shown) [compound 4, 4]"
  STUDY_SYSTEM: "TNKS2 ARC4 (Homo sapiens, UniProt Q9H2K2)"
  pIC50: 4.11
- COMPOUND: "CCN(CC)CCCN1C(=O)C(O)=C(C(=O)c2ccc3c(c2)OCCO3)C1c1ccncc1 (stereo not shown) [compound 24, 24]"
  STUDY_SYSTEM: "TNKS2 ARC4 (Homo sapiens, UniProt Q9H2K2)"
  pIC50: 4.25

(a) COc1cccc(C2C(C(=O)c3ccc4c(c3)OCCO4)=C(O)C(=O)N2CCCNC(=N)N)c1 (stereo not shown) [S4]
(b) CCN(CC)CCCN1C(=O)C(O)=C(C(=O)c2ccc3c(c2)OCCO3)C1c1ccc(N(C)C)cc1 (stereo not shown) [compound 19, 19]
(c) CN(C)CCN1C(=O)C(O)=C(C(=O)c2ccc3c(c2)OCCO3)C1c1cccc(O)c1 (stereo not shown) [compound 17, 17]
(d) O=C(C1=C(O)C(=O)N(CCCN2CCOCC2)C1c1cccc(O)c1)c1ccc2c(c1)OCCO2 (stereo not shown) [compound 18, 18]
Sort the compounds on pIC50; start with the lowest figure. Returns: the labels listed in the requested order.
c, a, d, b
(c: 3.56, a: 3.85, d: 4.07, b: 5.00)
